Values from patent US20140221282A1

Collected IC50 values appear next to each entry.
target: T1, amylin receptor of rat nucleus accumbens membranes (rat); test: competition with 125I-rat amylin, rat nucleus accumbens membranes
T1 construct: whole, on cells; native tissue membranes; also called RNA membranes
T1 sequence (P32214 other isoform, or with tags, fused parts or gaps, chain 1 of 2): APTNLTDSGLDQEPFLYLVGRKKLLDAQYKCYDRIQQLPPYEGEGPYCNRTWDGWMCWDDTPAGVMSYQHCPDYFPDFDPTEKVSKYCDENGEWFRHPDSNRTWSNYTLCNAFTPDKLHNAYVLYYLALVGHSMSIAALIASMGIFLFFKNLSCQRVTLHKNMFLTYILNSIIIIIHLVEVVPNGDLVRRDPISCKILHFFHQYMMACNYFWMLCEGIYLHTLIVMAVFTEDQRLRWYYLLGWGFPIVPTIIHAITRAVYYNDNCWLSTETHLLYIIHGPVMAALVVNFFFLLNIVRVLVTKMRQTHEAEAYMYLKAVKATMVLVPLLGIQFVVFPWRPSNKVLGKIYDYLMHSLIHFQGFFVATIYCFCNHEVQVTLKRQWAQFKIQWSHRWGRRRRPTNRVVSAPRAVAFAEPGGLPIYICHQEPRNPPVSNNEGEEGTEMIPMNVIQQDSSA
T1 sequence (Q9JJ74 27-148, chain 2 of 2, further chain): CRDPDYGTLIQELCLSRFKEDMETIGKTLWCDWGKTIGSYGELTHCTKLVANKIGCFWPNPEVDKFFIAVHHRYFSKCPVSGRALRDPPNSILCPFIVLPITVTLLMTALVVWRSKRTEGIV
Ends that are not written are not given here. Y‑shaped‑mPEG40KD = Y-shaped methoxy-PEG of 40 kDa attached to the Lys side chain; mPEG40KD = methoxy-PEG of 40 kDa

{"BINDER": "CNTATCATQRLANFLVHSSNNFGPK(Y‑shaped‑mPEG40KD)LPPTNVGSNTY-NH2 (ends and bridges not checked, also called Cmpd 79) [[K^26(Y-shaped-mPEG40KD)]-Cmpd 60]", "IC50": "132 nM"}
{"BINDER": "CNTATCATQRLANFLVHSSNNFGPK(mPEG40KD)LPPTNVGSNTY-NH2 (ends and bridges not checked, also called Cmpd 77) [[K^26(mPEG40KD)]-Cmpd 60]", "IC50": "39 nM"}
{"BINDER": "KCNTATCATQRLANFLVRSSNNLGPVLPPTNVGSNTY-NH2 (ends and bridges not checked, also called Cmpd 49) [rat amylin, KCNTATCATQRLANFLVRSSNNLGPVLPPTNVGSNTY-NH2]", "IC50": "0.1 nM"}
